# System: VERPE: bird's-eye speedwell (veronica persica)
# Test Details: Post-emergent Test III, herbicidal activity in wheat and barley
# Assay type: in vivo
# Run Parameters: Veronica persica, post-emergence, 504 h; Table 8; 35 g ai/ha; post-emergent; 21 d; read-out: Visual Growth Reduction (%) 21 Days After Application VERPE
Measure: pest or weed control at 35 g/ha

Answered cases to consult:
Nc1c(Cl)c(C(=O)O)nc(-c2ccc(Br)c(F)c2)c1Cl [Compound 43] :: 30 to 44%
COC(=O)c1nc(-c2ccc(Br)c(F)c2)nc(N)c1OC [Compound 171] :: 85 to 94%
COc1c(N)nc(-c2ccc(I)c(F)c2)nc1C(=O)O [Compound 37] :: 60 to 74%

Lab note: next compound to report on.
Enquiry: Would you mind telling me what pest or weed control at 35 g/ha value was observed for Nc1cc(-c2cc(F)c(Br)cc2F)nc(C(=O)O)c1Cl [Compound 3] ?
Return: 45 to 59%
